FYI, the data here is from patent US20090081197A1.

# assay_target: T1, human melanocortin 5 receptor (human, UniProt P33032 1-325)
# T1 construct: whole, on cells; also called hMC5-R; MC5-R
# T1 sequence (P33032 whole entry): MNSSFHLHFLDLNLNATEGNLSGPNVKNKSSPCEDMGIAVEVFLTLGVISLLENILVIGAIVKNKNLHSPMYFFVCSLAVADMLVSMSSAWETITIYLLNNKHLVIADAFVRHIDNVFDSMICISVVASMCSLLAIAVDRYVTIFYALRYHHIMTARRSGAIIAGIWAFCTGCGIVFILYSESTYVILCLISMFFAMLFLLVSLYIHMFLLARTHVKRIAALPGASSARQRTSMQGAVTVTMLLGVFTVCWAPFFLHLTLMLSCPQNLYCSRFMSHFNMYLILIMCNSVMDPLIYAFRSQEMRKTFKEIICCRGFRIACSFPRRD
# assay_method_text: radioligand competition, [I125]-NDP-α-MSH, hMC5-R membranes
measured_endpoint: pKi
Scale note: pKi = -log10(concentration in M).

Exercise: Tell me the measured pKi of XDHFRXK (N-terminal acetyl; Nle at 1 (X); D-Phe at 4; Nal 1 at 6 (X); cyclo(Asp 2 to Lys 7); C-terminal dimethylamide -N(CH3)2, also called Compound No. 37) [Ac-Nle-cyclo(-Asp-His-D-Phe-Arg-Nal 1-Lys)-N(CH3)2] , please.
Key: 7.30
